Biological target: hSSTR2 (Homo sapiens (Human), UniProt P30874)
Sequence (P30874 whole entry): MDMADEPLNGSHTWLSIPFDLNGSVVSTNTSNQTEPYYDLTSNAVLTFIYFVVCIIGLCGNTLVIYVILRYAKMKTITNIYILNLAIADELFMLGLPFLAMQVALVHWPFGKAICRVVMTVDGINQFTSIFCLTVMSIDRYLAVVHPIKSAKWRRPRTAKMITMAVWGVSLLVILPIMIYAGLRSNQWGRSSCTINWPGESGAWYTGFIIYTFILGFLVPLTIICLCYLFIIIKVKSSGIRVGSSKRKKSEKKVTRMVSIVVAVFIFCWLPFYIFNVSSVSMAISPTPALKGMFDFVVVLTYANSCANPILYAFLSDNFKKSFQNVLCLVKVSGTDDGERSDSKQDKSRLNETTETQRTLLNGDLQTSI
Experiment: Intracellular calcium mobilization assay (FLIPR Calcium 4), hSSTR2;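 note: agonist activity read as intracellular calcium rise in cells expressing human SSTR2, loaded with a calcium-sensitive dye for 60 min at 37 °C, measured by FLIPR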
Assay type: cell-based
Bridge positions count the residues as written; N and C are the ends. Square brackets hold non-standard residues; d marks the D form. Peptide text beside a SMILES is read from it. * marks the point of attachment. X2 = CN1C[C@H](CSCC(=O)*)C[C@@H]2c3cccc4[nH]cc(c34)C[C@H]21; dDab = NCC[C@@H](N)C(=O)O
quantity_measured: pEC50
Numbers only, as −log10 of the molar value.

// below: answered molecules
C[C@@H](O)[C@@H]1NC(=O)[C@H](CCCCN)NC(=O)[C@@H](Cc2c[nH]c3ccccc23)NC(=O)[C@H](Cc2ccncc2)NC(=O)[C@H](Cc2ccccc2)NC(=O)[C@H](CCCNC(=N)N)NC(=O)[C@H](NC[C@H](Cc2ccc(O)cc2)NC(=O)CSC[C@@H]2C[C@@H]3c4cccc5[nH]cc(c45)C[C@H]3N(C)C2)CCCCNC(=O)[C@H](Cc2ccccc2)NC1=O
8.12
C[C@@H](O)[C@@H]1NC(=O)[C@H](CCCCN)NC(=O)[C@@H](Cc2c[nH]c3ccccc23)NC(=O)[C@H](Cc2ccccc2)NC(=O)[C@H](Cc2ccccc2)NC(=O)[C@H](CCCNC(=N)N)NC(=O)[C@H](NC[C@@H](Cc2ccc(O)cc2)NC(=O)CSC[C@@H]2C[C@@H]3c4cccc5[nH]cc(c45)C[C@H]3N(C)C2)CCCCNC(=O)[C@H](Cc2ccccc2)NC1=O
7.53
C[C@@H](O)[C@@H]1NC(=O)[C@H](CCCCN)NC(=O)[C@@H](Cc2c[nH]c3ccccc23)NC(=O)[C@H](Cc2ccncc2)NC(=O)[C@H](Cc2ccccc2)NC(=O)[C@H](CCCNC(=N)N)NC(=O)[C@H](NCCS(=O)(=O)C[C@@H]2C[C@@H]3c4cccc5[nH]cc(c45)C[C@H]3N(C)C2)CCCCNC(=O)[C@H](Cc2ccc(O)cc2)NC1=O
9.15
C[C@@H](O)[C@@H]1NC(=O)[C@H](CCCCN)NC(=O)[C@@H](Cc2c[nH]c3ccccc23)NC(=O)[C@H](Cc2ccncc2)NC(=O)[C@H](Cc2ccccc2)NC(=O)[C@H](CCCNC(=N)N)NC(=O)[C@H](NC[C@H](CCCCNC(=O)CSC[C@@H]2C[C@@H]3c4cccc5[nH]cc(c45)C[C@H]3N(C)C2)NC(=O)CSC[C@@H]2C[C@@H]3c4cccc5[nH]cc(c45)C[C@H]3N(C)C2)CCCCNC(=O)[C@H](Cc2ccc(O)cc2)NC1=O
7.53
C[C@@H](O)[C@@H]1NC(=O)[C@H](CCCCN)NC(=O)[C@@H](Cc2c[nH]c3ccccc23)NC(=O)[C@H](Cc2ccncc2)NC(=O)[C@H](Cc2ccccc2)NC(=O)[C@H](CCCNC(=N)N)NC(=O)[C@H](NC[C@H](CCCCNC(=O)CSC[C@@H]2C[C@@H]3c4cccc5[nH]cc(c45)C[C@H]3N(C)C2)NC(=O)CSC[C@@H]2C[C@@H]3c4cccc5[nH]cc(c45)C[C@H]3N(C)C2)CCCCNC(=O)[C@H](Cc2ccccc2)NC1=O
7.65
C[C@@H](O)[C@@H]1NC(=O)[C@H](CCCCN)NC(=O)[C@@H](Cc2c[nH]c3ccccc23)NC(=O)[C@H](Cc2ccccc2)NC(=O)[C@H](Cc2ccccc2)NC(=O)[C@H](CCCNC(=N)N)NC(=O)[C@H](NC[C@H](Cc2ccc(O)cc2)NC(=O)CSC[C@@H]2C[C@@H]3c4cccc5[nH]cc(c45)C[C@H]3N(C)C2)CCCCNC(=O)[C@H](Cc2ccc(F)cc2)NC1=O
7.84
CC(=O)N(CCCNC(CN[C@@H]1CCCCNC(=O)[C@H](Cc2ccc(F)cc2)NC(=O)[C@H]([C@@H](C)O)NC(=O)[C@H](CCCCN)NC(=O)[C@@H](Cc2c[nH]c3ccccc23)NC(=O)[C@H](Cc2ccccc2)NC(=O)[C@H](Cc2ccccc2)NC(=O)[C@H](CCCNC(=N)N)NC1=O)Cc1ccc(O)cc1)C[C@@H]1C[C@@H]2c3cccc4[nH]cc(c34)C[C@H]2N(C)C1 (single isomer, unassigned) [Compound 28A]
7.83
CC(=O)N(CCC(=O)NC(CN[C@@H]1CCCCNC(=O)[C@H](Cc2ccc(F)cc2)NC(=O)[C@H]([C@@H](C)O)NC(=O)[C@H](CCCCN)NC(=O)[C@@H](Cc2c[nH]c3ccccc23)NC(=O)[C@H](Cc2ccccc2)NC(=O)[C@H](Cc2ccccc2)NC(=O)[C@H](CCCNC(=N)N)NC1=O)Cc1ccc(O)cc1)C[C@@H]1C[C@@H]2c3cccc4[nH]cc(c34)C[C@H]2N(C)C1 (single isomer, unassigned)
7.94
C[C@@H](O)[C@@H]1NC(=O)[C@H](CCCCN)NC(=O)[C@@H](Cc2c[nH]c3ccccc23)NC(=O)[C@H](Cc2ccccc2)NC(=O)[C@H](Cc2ccccc2)NC(=O)[C@H](CCCNC(=N)N)NC(=O)[C@H](NC[C@H](CCCCNC(=O)CSC[C@@H]2C[C@@H]3c4cccc5[nH]cc(c45)C[C@H]3N(C)C2)NC(=O)CSC[C@@H]2C[C@@H]3c4cccc5[nH]cc(c45)C[C@H]3N(C)C2)CCCCNC(=O)[C@H](Cc2ccc(F)cc2)NC1=O
7.11

Then this molecule:
Recall the recorded pEC50 for C[C@@H](O)[C@@H]1NC(=O)[C@H](CCCCN)NC(=O)[C@@H](Cc2c[nH]c3ccccc23)NC(=O)[C@H](Cc2ccccc2)NC(=O)[C@H](Cc2ccccc2)NC(=O)[C@H](CCCNC(=N)N)NC(=O)[C@H](NC(=O)[C@H](CCCCNC(=O)CSC[C@@H]2C[C@@H]3c4cccc5[nH]cc(c45)C[C@H]3N(C)C2)NC(=O)CSC[C@@H]2C[C@@H]3c4cccc5[nH]cc(c45)C[C@H]3N(C)C2)CCNC(=O)[C@H](Cc2ccccc2)NC1=O [Reference Compound C, reference compound] (X2-K(X2)[dDab]RFF[dW]KTF; lactam 2-C) with hSSTR2 (Homo sapiens (Human), UniProt P30874) and state it.
7.16

Where do these numbers come from? They come from patent US8952128B2.
